subject-of-test: human CD40 Transcript 1 (Myc-DDK-tagged) on HEK293 GRE reporter cells (human, UniProt P25942 21-277)
Sequence (P25942 21-277): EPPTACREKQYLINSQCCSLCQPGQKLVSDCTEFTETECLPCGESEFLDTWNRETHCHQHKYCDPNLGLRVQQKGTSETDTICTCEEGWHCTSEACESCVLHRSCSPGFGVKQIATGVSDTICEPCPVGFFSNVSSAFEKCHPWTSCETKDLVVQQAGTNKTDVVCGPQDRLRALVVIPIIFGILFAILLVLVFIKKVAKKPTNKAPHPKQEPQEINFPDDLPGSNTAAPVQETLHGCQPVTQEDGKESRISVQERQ
measurement-protocol: cell-based or functional assay

binder	unit-string	hCD40 GRE EC50
Example 12-hydrolyzed (human), n=4 (antibody, human IgG1, kappa, L234A L235A, V domains shown, glucocorticoid drug-linker of Precursor Example 12 (maleimide, thiosuccinimide ring hydrolyzed) on cysteine thiols of reduced disulfides; n=4 per antibody; positions not given) VH: EVQLVESGGGLVKPGGSLRLSCAASGFTFSDYGMNWVRQAPGKGLEWIAYISSGRGNIYYADTVKGRFTISRDNAKNSLYLQMNSLRAEDTAVYYCARSWGYFDVWGQGTTVTVSS VL: DIVMTQSPDSLAVSLGERATINCKSSQSLLNRGNQKNYLTWFQQKPGQPPKLLIYWASTRESGVPDRFSGSGSGTDFTLTISSLQAEDVAVYYCQNDYTYPLTFGQGTKLEIKR	mg/L	0.19
Example 13-hydrolyzed (human), n=4 (antibody, human IgG1, kappa, L234A L235A, V domains shown, glucocorticoid drug-linker of Precursor Example 13 (maleimide, thiosuccinimide ring hydrolyzed) on cysteine thiols of reduced disulfides; n=4 per antibody; positions not given) VH: EVQLVESGGGLVKPGGSLRLSCAASGFTFSDYGMNWVRQAPGKGLEWIAYISSGRGNIYYADTVKGRFTISRDNAKNSLYLQMNSLRAEDTAVYYCARSWGYFDVWGQGTTVTVSS VL: DIVMTQSPDSLAVSLGERATINCKSSQSLLNRGNQKNYLTWFQQKPGQPPKLLIYWASTRESGVPDRFSGSGSGTDFTLTISSLQAEDVAVYYCQNDYTYPLTFGQGTKLEIKR	mg/L	0.29
Example 28-conjugated (human), n=2 (antibody, human IgG1, kappa, L234A L235A, DAR 2, V domains shown, glucocorticoid drug-linker of Precursor Example 28 (bromoacetamide) on cysteine thiols of reduced interchain disulfides; n=2 per antibody; positions not given) VH: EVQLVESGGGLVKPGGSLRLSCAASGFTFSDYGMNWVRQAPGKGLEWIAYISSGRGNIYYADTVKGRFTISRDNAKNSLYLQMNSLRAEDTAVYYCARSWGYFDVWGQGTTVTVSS VL: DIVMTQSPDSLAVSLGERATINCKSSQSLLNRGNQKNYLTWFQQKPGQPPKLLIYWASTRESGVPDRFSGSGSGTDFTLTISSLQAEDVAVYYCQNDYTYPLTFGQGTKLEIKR	mg/L	16.5
Example 4-conjugated (human), n=4 (antibody, human IgG1, kappa, L234A L235A, DAR 4, V domains shown, glucocorticoid drug-linker of Precursor Example 4 (bromoacetamide) on cysteine thiols of reduced interchain disulfides; n=4 per antibody; positions not given) VH: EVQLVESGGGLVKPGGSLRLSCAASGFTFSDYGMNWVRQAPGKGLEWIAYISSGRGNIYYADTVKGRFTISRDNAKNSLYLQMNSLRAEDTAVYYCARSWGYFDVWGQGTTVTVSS VL: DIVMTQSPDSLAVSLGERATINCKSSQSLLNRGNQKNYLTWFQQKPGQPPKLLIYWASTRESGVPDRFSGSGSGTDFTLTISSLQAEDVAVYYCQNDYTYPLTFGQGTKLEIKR	mg/L	6.57
Example 28-conjugated (human), n=4 (antibody, human IgG1, kappa, L234A L235A, DAR 4, V domains shown, glucocorticoid drug-linker of Precursor Example 28 (bromoacetamide) on cysteine thiols of reduced interchain disulfides; n=4 per antibody; positions not given) VH: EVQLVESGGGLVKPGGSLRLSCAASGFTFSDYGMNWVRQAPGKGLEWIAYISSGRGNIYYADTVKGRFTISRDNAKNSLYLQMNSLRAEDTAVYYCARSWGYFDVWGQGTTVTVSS VL: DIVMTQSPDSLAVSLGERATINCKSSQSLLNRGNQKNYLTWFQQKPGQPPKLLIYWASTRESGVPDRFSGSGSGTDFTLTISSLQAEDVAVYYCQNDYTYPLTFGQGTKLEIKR	mg/L	0.53
